From: ChEMBL document CHEMBL4513216

INHIBITION by entry:
# Tested on: Plasmodium berghei
# test.description: Screen against P. berghei liver stage (PbLuc), transformed with Luciferase, at 10uM
# Type: functional, HepG2
# test.context: tested at 10 uM
About 8,600 (12%) of roughly 69,000 compounds showed an effect of 50% or more. Only a selection was taken, and strong results are over-represented in it overall.
Enter your answer as a number in %; do not include the unit.

Req: Hello, I am looking for reported INHIBITION with Plasmodium berghei for c1ccc(OCc2nnc3n2CCN(CC2CC2)C3)nc1 . Could you help?
Resp: 39.3

Req: Hello, I am looking for reported INHIBITION with Plasmodium berghei for c1ccc(CCCN2CC[C@H](c3nnc(-c4cccnc4)o3)C2)cc1 . Could you help?
Resp: 13.5

Req: Hello, I am looking for reported INHIBITION with Plasmodium berghei for O=C(NCC1CCC(c2nnc(-c3cccnc3)o2)CC1)C1CC1 (configuration not stated) . Could you help?
Resp: 50.8

Req: Hello, I am looking for reported INHIBITION with Plasmodium berghei for COCC(=O)NCC1CCC(c2nnc(-c3cccnc3)o2)CC1 (configuration not stated) . Could you help?
Resp: -8.58

Req: Hello, I am looking for reported INHIBITION with Plasmodium berghei for O=C(O)c1c(-c2ccncc2)ncc2c1CCN(C1CCOC1)C2 (configuration not stated) . Could you help?
Resp: -12.4

Req: Hello, I am looking for reported INHIBITION with Plasmodium berghei for Cc1cc(N2CCCCC2)nc(N(CCO)CCO)c1C#N . Could you help?
Resp: 31.8

Req: Hello, I am looking for reported INHIBITION with Plasmodium berghei for c1ccc(OCCN2CCC(c3nnc(-c4cccnc4)o3)CC2)cc1 . Could you help?
Resp: 20.8

Req: Hello, I am looking for reported INHIBITION with Plasmodium berghei for COCC(=O)NCC1CCC(c2nnc(-c3ccncc3)o2)CC1 (configuration not stated) . Could you help?
Resp: 13.7

Req: Hello, I am looking for reported INHIBITION with Plasmodium berghei for CC(Cn1ccnc1)NC(=O)NCCc1cccs1 (configuration not stated) . Could you help?
Resp: -17.08

Req: Hello, I am looking for reported INHIBITION with Plasmodium berghei for c1ccc(-c2nnc(C3CCCN(CC4CCCCC4)C3)o2)nc1 (configuration not stated) . Could you help?
Resp: 7.52

Req: Hello, I am looking for reported INHIBITION with Plasmodium berghei for CCCn1ncc(CN(Cc2cccnc2)Cc2cccs2)c1C . Could you help?
Resp: -4.87

Req: Hello, I am looking for reported INHIBITION with Plasmodium berghei for c1cncc(-c2nnc([C@H]3CCN(CC4CC4)C3)o2)c1 . Could you help?
Resp: 67.8

----------
# Tested on: Plasmodium berghei
# test.description: Screen against P. berghei liver stage (PbLuc), transformed with Luciferase, at 10uM
# Type: functional, HepG2
# test.context: tested at 10 uM
Screen size: about 69,000 compounds; about 8,600 (12%) showed an effect of 50% or more. The entries come from a sample that favours strong results as a whole.
INHIBITION by entry:
Give the value; after it, write the unit.

Sample records with INHIBITION:
COc1ccc2c(c1)nc1n2[C@@H](CNCc2nccs2)COC1 | 8.52%
COc1ccc2c(c1)nc1n2[C@@H](CNCc2ncccc2C)COC1 | 51%
COc1ccc2c(c1)nc1n2[C@@H](CNCc2ccccc2)COC1 | 43.1%
CS(=O)(=O)CCC(=O)NC1(c2cccc(C(F)(F)F)c2)CCC1 | 65.6%
CCOc1cc(C)nc(N2CCN(C(=O)c3cnc[nH]3)CC2)n1 | -3.2%

Next:
Req: State the recorded INHIBITION for this entry: Cc1csc(N2CCCN(CCC(=O)NC(N)=O)CC2)n1
Resp: 9.54%
